test-name: NCI Yeast Anticancer Drug Screen. Data for the sgs1 mgt1 strain (AID 161)
conditions: S. cerevisiae sgs1 mgt1 strain, at 50.0 µM, stronger effect = higher value
The panel holds about 79,000 compounds, 15% with a hit somewhere; the sample as a whole holds those more often.
Classify by measured growth inhibition: Satisfied if it is equal to or exceeds 10%, Not satisfied if it is smaller.

Prompt: Dear colleague, could you confirm whether Cc1noc(/N=C/c2ccccc2)c1C has growth inhibition at or above 10%?
Completion: Not satisfied

Prompt: Dear colleague, could you confirm whether Cc1cc2c(cc1Cl)SC(N/N=C(\N)c1ccc(Cl)cc1)=NS2(=O)=O has growth inhibition at or above 10%?
Completion: Not satisfied

Prompt: Dear colleague, could you confirm whether NC(CC(=O)O)C(=O)OCc1cccc(N=Nc2ccccc2)c1 (centres undefined) has growth inhibition at or above 10%?
Completion: Not satisfied

Prompt: Dear colleague, could you confirm whether CN(C)S(=O)(=O)c1cccc([N+](=O)[O-])c1 has growth inhibition at or above 10%?
Completion: Satisfied

Prompt: Dear colleague, could you confirm whether O=C1NC(=O)[C@H]2C3C=CC([C@@H]12)[C@@H]1C(=O)NC(=O)[C@H]31 has growth inhibition at or above 10%?
Completion: Not satisfied

Prompt: Dear colleague, could you confirm whether C=C1SC(=Nc2ccc(Cl)cc2)N(c2nc(Cl)nc(Cl)n2)C12CCCCC2 has growth inhibition at or above 10%?
Completion: Satisfied

Prompt: Dear colleague, could you confirm whether CC(C)(CO)C(O)C(=O)NCCO (centres undefined) has growth inhibition at or above 10%?
Completion: Not satisfied

Prompt: Dear colleague, could you confirm whether CC(C)(C)NO has growth inhibition at or above 10%?
Completion: Not satisfied

Prompt: Dear colleague, could you confirm whether O=C(Cc1ccccc1)NN1C(=O)/C(=C\c2ccccc2O)SC1=Nc1ccccc1 has growth inhibition at or above 10%?
Completion: Satisfied

Prompt: Dear colleague, could you confirm whether NC(=O)N1CCCCC1 has growth inhibition at or above 10%?
Completion: Satisfied

Prompt: Dear colleague, could you confirm whether ClC1C2c3ccccc3C1C1C2C2(c3ccccc3)OC1(c1ccccc1)c1ccccc12 (centres undefined) has growth inhibition at or above 10%?
Completion: Not satisfied

Prompt: Dear colleague, could you confirm whether CC(=O)Oc1ccc(C2(OC(C)=O)c3ccccc3C(=O)c3ccccc32)cc1 has growth inhibition at or above 10%?
Completion: Satisfied

Prompt: Dear colleague, could you confirm whether Cc1ccc(C)n1N(c1ccccc1)c1ccccc1 has growth inhibition at or above 10%?
Completion: Not satisfied

Prompt: Dear colleague, could you confirm whether O=C(NO)c1c(F)c(F)c(C(=O)NO)c(F)c1F has growth inhibition at or above 10%?
Completion: Not satisfied

Prompt: Dear colleague, could you confirm whether C[OH2+].[Cl][Cu+].[Cl][Cu+].[NH-]CCC([OH2+])CC[NH-] has growth inhibition at or above 10%?
Completion: Not satisfied

Prompt: Dear colleague, could you confirm whether CCOC(=O)N1C2C(c3ccccc3)=NC(C)(C)N2C(c2ccc([N+](=O)[O-])cc2)N1C(=O)OCC (centres undefined) has growth inhibition at or above 10%?
Completion: Not satisfied

Prompt: Dear colleague, could you confirm whether CCCCNC(=O)CC(C)C(=O)O (centres undefined) has growth inhibition at or above 10%?
Completion: Not satisfied

Prompt: Dear colleague, could you confirm whether O=S(=O)(c1ccccc1)c1ccccc1Br has growth inhibition at or above 10%?
Completion: Not satisfied

Prompt: Dear colleague, could you confirm whether Nc1ccc(C(=O)CC(N)C(=O)O)cc1O (centres undefined) has growth inhibition at or above 10%?
Completion: Not satisfied

Prompt: Dear colleague, could you confirm whether CN1CC(=O)N(C(=O)c2ccccc2)C1=N has growth inhibition at or above 10%?
Completion: Not satisfied

Prompt: Dear colleague, could you confirm whether C=CCNC(=S)Nc1ccc(OC(=O)NC(C)(C)C)cc1 has growth inhibition at or above 10%?
Completion: Satisfied

Prompt: Dear colleague, could you confirm whether Cn1cnc([N+](=O)[O-])c1Sc1ccncc1S(N)(=O)=O has growth inhibition at or above 10%?
Completion: Not satisfied

Prompt: Dear colleague, could you confirm whether COc1cc(CC2COC(=O)[C@@H]2Cc2ccc(O)c(OC)c2)ccc1O (some centres undefined) has growth inhibition at or above 10%?
Completion: Not satisfied

Prompt: Dear colleague, could you confirm whether CCOC(=O)C(=O)NC12CC3CC(CC(C3)C1)C2 has growth inhibition at or above 10%?
Completion: Not satisfied

Prompt: Dear colleague, could you confirm whether CC1(C)CC(=O)C(C(c2ccccc2)C2C(=O)CC(C)(C)CC2=O)C(=O)C1 has growth inhibition at or above 10%?
Completion: Not satisfied

Prompt: Dear colleague, could you confirm whether CC(=O)NCCc1[nH]cnc1N=Nc1ccc(Br)cc1 has growth inhibition at or above 10%?
Completion: Satisfied

Prompt: Dear colleague, could you confirm whether N#Cc1c(-c2ccccc2)cc(-c2ccc(N)cc2)[nH]c1=O has growth inhibition at or above 10%?
Completion: Satisfied

Prompt: Dear colleague, could you confirm whether OCC1CSCC1CO (centres undefined) has growth inhibition at or above 10%?
Completion: Not satisfied

Prompt: Dear colleague, could you confirm whether CN1N=C2c3ccccc3OC(c3ccccc3)[C@H]2C1c1ccccc1 (some centres undefined) has growth inhibition at or above 10%?
Completion: Not satisfied

Prompt: Dear colleague, could you confirm whether COc1ccc(C(=O)c2ccc(Cl)s2)cc1 has growth inhibition at or above 10%?
Completion: Satisfied

Prompt: Dear colleague, could you confirm whether CC(C)=CCCC(C)C1CCC2C3CC=C4CC(O)CCC4(C)C3CCC12C (centres undefined) has growth inhibition at or above 10%?
Completion: Satisfied

Prompt: Dear colleague, could you confirm whether c1ccc2cc(-c3csc4ccccc34)ccc2c1 has growth inhibition at or above 10%?
Completion: Satisfied

Prompt: Dear colleague, could you confirm whether Cc1ccc(S(=O)(=O)CNC(=O)C(O)(O)C(F)(F)F)cc1 has growth inhibition at or above 10%?
Completion: Not satisfied

Prompt: Dear colleague, could you confirm whether CC(O)C(=O)OCCOCCOC(=O)C(C)O (centres undefined) has growth inhibition at or above 10%?
Completion: Satisfied

Prompt: Dear colleague, could you confirm whether CCN(CC)CCC1CCNCC1 has growth inhibition at or above 10%?
Completion: Not satisfied

Prompt: Dear colleague, could you confirm whether N#Cc1cccc(N(C(=O)c2ccccc2)c2ccccc2)n1 has growth inhibition at or above 10%?
Completion: Not satisfied

Prompt: Dear colleague, could you confirm whether Cc1cc2c(C(C)C)c(O)c(O)c(C=Nc3ccccc3)c2c(O)c1-c1c(C)cc2c(C(C)C)c(O)c(O)c(C=Nc3ccccc3)c2c1O has growth inhibition at or above 10%?
Completion: Satisfied

Prompt: Dear colleague, could you confirm whether CCCCCCc1c(N)nc(N)[nH]c1=O has growth inhibition at or above 10%?
Completion: Not satisfied

Prompt: Dear colleague, could you confirm whether Cn1nnnc1CC(=O)O has growth inhibition at or above 10%?
Completion: Not satisfied

Prompt: Dear colleague, could you confirm whether COc1cccc(N(CN2C(=O)CCC2OC)C(C)=O)c1 (centres undefined) has growth inhibition at or above 10%?
Completion: Satisfied

Prompt: Dear colleague, could you confirm whether C1Cc2nnnn2C1 has growth inhibition at or above 10%?
Completion: Not satisfied

Prompt: Dear colleague, could you confirm whether COc1ccc2nc(-c3ccccc3)cc(OCC(=O)O)c2c1 has growth inhibition at or above 10%?
Completion: Not satisfied

Prompt: Dear colleague, could you confirm whether O=C(NCCN1CCCCC1)c1ccc(I)cc1 has growth inhibition at or above 10%?
Completion: Satisfied

Prompt: Dear colleague, could you confirm whether Cc1cnc2cc(Cl)ccc2c1NCCN(CC(C)C)CC(C)C has growth inhibition at or above 10%?
Completion: Not satisfied

Prompt: Dear colleague, could you confirm whether CC(=O)CC(=O)ON(C)C(C)=O has growth inhibition at or above 10%?
Completion: Not satisfied

Prompt: Dear colleague, could you confirm whether CCOC(=O)C1C(C)C2(C#N)C(=N)OC1(C)C2(C#N)C#N (centres undefined) has growth inhibition at or above 10%?
Completion: Not satisfied

Prompt: Dear colleague, could you confirm whether O=C/C=C/C=C/C=C/c1ccccc1 has growth inhibition at or above 10%?
Completion: Satisfied

Prompt: Dear colleague, could you confirm whether c1ccc(N2CCN(CCCN3CCc4c([nH]c5ccccc45)C3c3cccnc3)CC2)cc1 (centres undefined) has growth inhibition at or above 10%?
Completion: Not satisfied
